Recorded values, source the supplement of paper PMC6757056.

B1: library; a variant is named by its letters at N, in order (parent)
chain: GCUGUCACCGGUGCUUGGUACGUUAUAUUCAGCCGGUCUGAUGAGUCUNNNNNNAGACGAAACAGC

- Variants of: B1
- Assay Info: normalized RNA/DNA level without ligand (relative to sTRSVctl = 100) (log10 (% of sTRSVctl)); HEK293T overexpressing SLC46A1; higher = less ribozyme self-cleavage, higher mRNA level
- Run Conditions: without (6R,S)-folinic acid; ligand present: no
Test Readout: normalized RNA/DNA level without ligand (log10)

{"Variant Descriptor": "AGUUAC", "Reported Value": 2.01}
{"Variant Descriptor": "ACGUCG", "Reported Value": 2}
{"Variant Descriptor": "GCCCCC", "Reported Value": 2.03}
{"Variant Descriptor": "GGCACC", "Reported Value": 2.02}
{"Variant Descriptor": "CAGUUG", "Reported Value": 2.04}
{"Variant Descriptor": "GACGAA", "Reported Value": 1.96}
{"Variant Descriptor": "GUAUUC", "Reported Value": 2.03}
{"Variant Descriptor": "UACUCU", "Reported Value": 2.03}
{"Variant Descriptor": "CCACAA", "Reported Value": 1.97}
{"Variant Descriptor": "GACAAA", "Reported Value": 1.97}
{"Variant Descriptor": "UCAAGU", "Reported Value": 1.98}
{"Variant Descriptor": "GCAUAU", "Reported Value": 1.97}
{"Variant Descriptor": "UUAUUU", "Reported Value": 1.98}
{"Variant Descriptor": "CCGGAC", "Reported Value": 2.05}
{"Variant Descriptor": "GGAGCU", "Reported Value": 2.05}
{"Variant Descriptor": "GCUCGU", "Reported Value": 2.03}
{"Variant Descriptor": "AAACCA", "Reported Value": 2}
{"Variant Descriptor": "CGACAG", "Reported Value": 1.95}
